Source listed as PubChem BioAssay (NCI).

As shown below, each of these compounds has a reported TGI value.
# System: SK-MEL-5 melanoma
# protocol-summary: NCI tumour cell line growth inhibition, 48 h
property-measured: TGI (µM)

[[record]]
compound = "CC(=O)OC1=NN=C2COC(c3ccccc3OC(C)=O)=NN2C1"
assayed_target = "SK-MEL-5 melanoma"
value_units = "µM"
relation_qualifier = "="
reported_result = 18.1

[[record]]
compound = "CC(=O)OCC1OC(NC(=S)Nn2c(=O)[nH]c3ccccc3c2=O)C(OC(C)=O)C(OC(C)=O)C1OC(C)=O (centres undefined)"
assayed_target = "SK-MEL-5 melanoma"
value_units = "µM"
relation_qualifier = ">"
reported_result = 100

[[record]]
compound = "CCC[CH2][Sn]1([CH2]CCC)[O]C(=O)C(C(C)C)N=Cc2ccccc2[O]1 (centres undefined)"
assayed_target = "SK-MEL-5 melanoma"
value_units = "µM"
relation_qualifier = ">"
reported_result = 100

[[record]]
compound = "N=C1C(=N)c2ccccc2-c2ccccc21.[Cl-].[Ru+2].c1cnc2c(c1)ccc1cccnc12.c1cnc2c(c1)ccc1cccnc12"
assayed_target = "SK-MEL-5 melanoma"
value_units = "µM"
relation_qualifier = "="
reported_result = 34.4


###

# System: NCI/ADR-RES ovarian
# protocol-summary: NCI tumour cell line growth inhibition, 48 h
property-measured: TGI

[[record]]
molecule = "Cc1ccc(/C(=C/C=C(C#N)C#N)Sc2ccc(Cl)cc2)cc1"
assayed_target = "NCI/ADR-RES ovarian"
reported_result = "19.9 µM"

[[record]]
molecule = "CCC#CC[C@H]1C/C=C2/C(=O)C=C[C@@H]2C/C=C\\CCCC(=O)O1"
assayed_target = "NCI/ADR-RES ovarian"
reported_result = "17.2 µM"

[[record]]
molecule = "COc1cc(OC)c(/C=C/C(=O)c2c(OC)cccc2OC)c(OC)c1"
assayed_target = "NCI/ADR-RES ovarian"
reported_result = "> 25.8 µM"

[[record]]
molecule = "CCN1C(=O)CNc2ncc(-c3ccc(-c4ncn[nH]4)nc3C)nc21"
assayed_target = "NCI/ADR-RES ovarian"
reported_result = "3.58 µM"

[[record]]
molecule = "c1ccc(C2=NNC3c4ccccc4-c4ccccc4N3C2)cc1 (stereo not given)"
assayed_target = "NCI/ADR-RES ovarian"
reported_result = "> 100 µM"

[[record]]
molecule = "O=C(CP(=O)(c1ccccc1)c1ccccc1)c1cccc(C(=O)CP(=O)(c2ccccc2)c2ccccc2)c1"
assayed_target = "NCI/ADR-RES ovarian"
reported_result = "> 100 µM"

[[record]]
molecule = "O=C(CSc1ncccn1)N/N=C/c1ccccc1OCc1ccccc1"
assayed_target = "NCI/ADR-RES ovarian"
reported_result = "> 100 µM"

[[record]]
molecule = "O=C1CC(Br)c2c(Br)sc(Br)c21 (stereo not given)"
assayed_target = "NCI/ADR-RES ovarian"
reported_result = "> 100 µM"

[[record]]
molecule = "CCN(CCCl)c1cc(CN(C)C)cc(NC(=O)c2ccc(C(=O)Nc3cc(CN(C)C)cc(N(CC)CCCl)c3)cc2)c1"
assayed_target = "NCI/ADR-RES ovarian"
reported_result = "> 100 µM"

[[record]]
molecule = "CC(=O)OCC1OC(NC(=S)Nn2c(=O)[nH]c3ccccc3c2=O)C(OC(C)=O)C(OC(C)=O)C1OC(C)=O (stereo not given)"
assayed_target = "NCI/ADR-RES ovarian"
reported_result = "> 100 µM"

